- assay-notes: Phase I dose-escalating study, plasma pharmacokinetics in patients with solid tumor
- Assay type: in vivo, human
- test-settings: human, plasma, 250 mg, 250 mg QD (4/1), C1D28 (n = 4), plasma; read-out: t½, mean (% CV) (converted)
value-kind: half-life (h)
Just the number please, in h, no unit attached.

Please report the recorded half-life for Cc1[nH]c(/C=C2\C(=O)Nc3ccc(F)cc32)c(C)c1C(=O)NC[C@H](O)CN1CCOCC1 .
22.4

* * *

- assay-notes: Phase I dose-escalating study, plasma pharmacokinetics in patients with solid tumor
- Assay type: in vivo, human
- test-settings: human, plasma, 150 mg QD, 150 mg QD 4/1 (n = 5), nominal time 10 h; read-out: Mean plasma concentration following the last dose on cycle 1 day 28
value-kind: concentration at 10 h (ng/mL)
Just the number please, in ng/mL, no unit attached.

Please report the recorded concentration at 10 h for Cc1[nH]c(/C=C2\C(=O)Nc3ccc(F)cc32)c(C)c1C(=O)NC[C@H](O)CN1CCOCC1 .
132

Measured values drawn from patent US20090012085A1 for this set.
